Just for reference, patent US11596639B2 is where these values come from.

Listed here are molecules together with their documented Ki.
biological target: UniProt:Q07820; assay: Fluorescence polarization anisotropy (FPA) competition assay, FITC-Bak or FITC-Bim BH3 peptide; assay type: binding; conditions: read-out: Ki for Inhibition of Mcl-1 by FPA assay
Sequence (Q07820 172-327): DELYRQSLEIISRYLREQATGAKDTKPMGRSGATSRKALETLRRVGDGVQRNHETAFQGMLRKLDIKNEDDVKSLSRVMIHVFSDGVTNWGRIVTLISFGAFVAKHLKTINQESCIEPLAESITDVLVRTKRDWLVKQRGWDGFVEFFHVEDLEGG

Example molecules with recorded Ki:
{"columns": ["MOLECULE", "Ki"],
 "data": [
  ["Cc1cc(OCCCc2c(C(=O)N(C)c3ccc(C(=O)O)cc3)n(CCN3CCOCC3)c3c(-c4c(C)nn(C)c4C)c(Cl)ccc23)cc(C)c1Cl", "> 200 nM"],
  ["Cc1cc(OCCCc2c3n(c4c(-c5c(C)ncnc5C)c(Cl)ccc24)[C@H](C)CN(c2ccc(C(=O)O)c4cccnc24)C3=O)cc(C)c1Cl", "< 1 nM"],
  ["Cc1cc(CCCCc2c(C(=O)N3CCN(c4ccnc(C(=O)O)c4)CC3)n(Cc3cccnc3)c3c(-c4c(C)nn(C)c4C)c(Cl)ccc23)cc(C)c1Cl", "> 200 nM"],
  ["Cc1cc(OCCCc2c3n(c4c(-c5c(C)nn(C)c5C)c(Cl)ccc24)[C@H](C)CN(c2cn(CCN4CCOCC4)c4cc(C(=O)O)ccc24)C3=O)cc(C)c1Cl [Example 292]", "< 1 nM"]
]}

Then there is this molecule:
**Q:** For the molecule shown here, Cc1cc(OCCCc2c3n(c4c(-c5c(C)n[nH]c5C)c(Cl)ccc24)[C@H](C)CN(c2cc(C(=O)O)c4ccn(C)c4c2)C3=O)cc(C)c1Cl , give the reported Ki.
**A:** < 1 nM
